Molecular target: UniProt:P08482
Sequence (P08482 whole entry): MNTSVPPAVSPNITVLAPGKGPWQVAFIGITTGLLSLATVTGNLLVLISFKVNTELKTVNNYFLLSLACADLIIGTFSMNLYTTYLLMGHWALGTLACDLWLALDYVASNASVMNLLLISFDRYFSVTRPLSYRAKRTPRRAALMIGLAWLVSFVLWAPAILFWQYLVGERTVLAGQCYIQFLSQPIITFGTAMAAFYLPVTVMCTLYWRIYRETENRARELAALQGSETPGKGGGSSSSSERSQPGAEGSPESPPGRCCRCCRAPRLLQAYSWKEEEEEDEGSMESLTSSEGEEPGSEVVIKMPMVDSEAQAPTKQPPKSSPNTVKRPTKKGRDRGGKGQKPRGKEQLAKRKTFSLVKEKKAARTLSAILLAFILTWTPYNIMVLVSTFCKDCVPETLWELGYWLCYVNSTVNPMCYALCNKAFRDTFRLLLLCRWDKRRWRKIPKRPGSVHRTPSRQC
Test: Agonist activity at rat M1 receptor expressed in CHO cells assessed as increase in calcium mobilization measured after 2.5 mins by Fluo-4-AM dye based assay
Format: functional, cell-based
Conditions: read-out: EC50
ENDPOINT LABEL: pEC50
Scale: pEC50 equals -log10([C]), with [C] in mol/L.

Exercise: Note pEC50 for the compound shown: Cn1ccc(-c2ccc(Cc3cc(C(=O)N[C@@H]4CCCC[C@H]4O)nc4c3ccn4C)cn2)n1
Solution: 5.64

Exercise: Please give measured pEC50 of the following entry: Cn1ccc2c(Cc3ccc(-c4nccs4)cc3)cc(C(=O)N[C@@H]3CCOC[C@H]3O)nc21
Solution: 5.25

Exercise: Check the records and state pEC50 for Cn1ccc(-c2ccc(Cc3cc(C(=O)N[C@@H]4CCCC[C@H]4O)nc4c3ccn4C)cc2)n1
Solution: 5.49

Exercise: Supply pEC50 value. Item: Cn1ccc(-c2ccc(Cc3cc(C(=O)N[C@@H]4CCOC[C@H]4O)nc4c3ccn4C)cn2)n1
Solution: 6.24

Exercise: For the compound Cn1ccc(-c2ccc(Cc3cc(C(=O)N[C@@H]4CCOC[C@H]4O)nc4c3ccn4C)cc2)n1 , give its reported pEC50.
Solution: 5.65

Exercise: # return recorded pEC50 for input Cn1cc(-c2ccc(Cc3cc(C(=O)N[C@@H]4CCCC[C@H]4O)nc4c3ccn4C)cn2)cn1
Solution: 5.92

Source of measurements: ChEMBL document CHEMBL4229572
